# Tested on: kochia (Kochia scoparia)
# Experiment description: Test C postemergence
# Type: in vivo
# Applied conditions: 125 g ai/ha, scale 0 to 100, 0 is no effect, 100 is complete control
Observed property: Plant response rating, Kochia
Answer using only a numeral; do not append any unit.

Compound	Plant response rating, Kochia
O=c1cccc(Oc2ncc(Cl)cn2)n1-c1ccc(C(F)(F)F)cc1 [Compound 10]	95
O=c1cccc(Oc2ncc(Cl)cn2)n1-c1ccc(C(F)(F)F)cn1 [Compound 7]	85
O=c1cccc(Oc2ncc(Cl)cn2)n1-c1ncc(Cl)cn1 [Compound 6]	85

The recorded Plant response rating, Kochia for entry O=c1cccc(Oc2ncc(Cl)cn2)n1-c1ccc(Cl)cc1 [Compound 1] equals 95

Source listed as patent US9963442B2.
